- Tested on: HS 578T breast
- assay_method_text: NCI tumour cell line growth inhibition, 48 h
attribute_measured: TGI

INPUT: Please state recorded TGI (tested on HS 578T breast) of CC(=O)Nc1ccc2cc3c(nc2n1)c1cccnc1n3S(=O)(=O)c1ccccc1
OUTPUT: > 100 µM

INPUT: Please state recorded TGI (tested on HS 578T breast) of CC1(C)CC(=O)C(/C=N/c2nc(-c3cccc([N+](=O)[O-])c3)cs2)=C(O)C1
OUTPUT: 62.4 µM

INPUT: Please state recorded TGI (tested on HS 578T breast) of Nc1c(S(=O)(=O)O)cc2c(c1Cl)C(=O)c1ccccc1C2=O
OUTPUT: > 100 µM

INPUT: Please state recorded TGI (tested on HS 578T breast) of [B]C(=O)NC(CC(C)C)C(=O)NC1c2ccsc2C(=O)C1O (centres undefined) (tested in a mixture with another compound)
OUTPUT: > 100 µM

INPUT: Please state recorded TGI (tested on HS 578T breast) of COc1ccc(/C=C/C(=O)N[C@@H]2C(=O)N3[C@@H]2SC(C)(C)[C@@H]3C(=O)O)cc1OC
OUTPUT: > 100 µM

INPUT: Please state recorded TGI (tested on HS 578T breast) of COc1ccc(-c2nc3ccccc3c(=O)[nH]2)cc1OC
OUTPUT: 83.1 µM

---
INPUT: Please state recorded TGI (tested on HS 578T breast) of O=C(/C=C/c1ccco1)c1cccc(Nc2nc(Nc3ccccc3)nc(Nc3ccccc3)n2)c1
OUTPUT: > 82.7 µM

INPUT: Please state recorded TGI (tested on HS 578T breast) of Nc1[nH]nc2c1Cc1c(n(Cc3ccc(Cl)cc3)c3ccccc13)C(=O)N2
OUTPUT: 40.2 µM

INPUT: Please state recorded TGI (tested on HS 578T breast) of CCOC(=O)C(C(=O)OCC)C(=S)NC1OC(COC(C)=O)C(OC(C)=O)C(OC(C)=O)C1OC(C)=O (centres undefined)
OUTPUT: > 100 µM

---

- Test system: MALME-3M melanoma
- assay_method_text: NCI tumour cell line growth inhibition, 48 h; in the data active = GI50 below about 0.43 µM; inactive = the rest
Respond only with the outcome that fits, drawn from Yes (active), No (inactive)

INPUT: Status in this test for COc1cc(-c2cc(C(=O)N3CCN(C(=O)c4ccccc4NCc4cccs4)CC3)nc3cc(-c4ccccc4)nn23)cc(OC)c1OC ?
OUTPUT: No

INPUT: Status in this test for Clc1ccc2c(NCCCNCc3ccc4c(c3)OCO4)ccnc2c1 ?
OUTPUT: No

INPUT: Status in this test for COc1cccc(-c2nn(C)c3sc(C(=O)NCCN4CCN(c5ccccc5F)CC4)cc23)c1 ?
OUTPUT: No

---
INPUT: Status in this test for O=C(/C=C/c1ccco1)c1cccc(Nc2nc(Nc3ccccc3)nc(Nc3ccccc3)n2)c1 ?
OUTPUT: No

INPUT: Status in this test for C/C(=N\O)c1ccc(Nc2cc(-c3ccccc3)nc3c(O)cccc23)cc1 ?
OUTPUT: No

INPUT: Status in this test for CC/C(=C(/c1ccc(Cl)cc1)c1ccc(OCCCN(C)C)cc1)c1ccc(OC)cc1 ?
OUTPUT: No

INPUT: Status in this test for CCCCCCCCCCCC(=O)[O][Sn]([CH2]CCC)([CH2]CCC)[CH2]CCC ?
OUTPUT: Yes

INPUT: Status in this test for COc1ccc(-n2cc(-c3ccc(F)cc3)[nH]c2=O)cc1OC ?
OUTPUT: No

The measured values listed here are drawn from PubChem BioAssay (NCI).
